tgt: Serine/threonine-protein kinase pim-3 (Homo sapiens, UniProt Q86V86)
method: Inhibition of human full length Pim-3 using RSRHSSYPAGT as substrate assessed as residual activity at 1 uM after 30 mins in presence of [gamma-33P]ATP; values are per cent of control
measure: residual activity (%)
Give your result in % as a bare value.

In: Form field: reported residual activity of Cc1c[nH]c2c([N+](=O)[O-])cc3cn[nH]c3c12
Out: 77

In: Form field: reported residual activity of O=[N+]([O-])c1cc2cn[nH]c2c2cc[nH]c12
Out: 78

In: Form field: reported residual activity of CCCc1c[nH]c2c([N+](=O)[O-])cc3cn[nH]c3c12
Out: 24

In: Form field: reported residual activity of CCOC(=O)c1[nH]c2c(N)cc3cn[nH]c3c2c1-c1ccccc1
Out: 72

In: Form field: reported residual activity of CCOC(=O)c1[nH]c2c(N)cc3cn[nH]c3c2c1C
Out: 93

In: Form field: reported residual activity of CCCc1c[nH]c2c(N)cc3cn[nH]c3c12
Out: 79

In: Form field: reported residual activity of CCOCc1c[nH]c2c([N+](=O)[O-])cc3cn[nH]c3c12
Out: 71

In: Form field: reported residual activity of Nc1cc2cn[nH]c2c2c(-c3ccccc3)c[nH]c12
Out: 68

In: Form field: reported residual activity of Nc1cc2cn[nH]c2c2cc[nH]c12
Out: 20

In: Form field: reported residual activity of O=[N+]([O-])c1cc2cn[nH]c2c2c(-c3ccccc3)c[nH]c12
Out: 38

In: Form field: reported residual activity of CCOC(=O)c1[nH]c2c([N+](=O)[O-])cc3cn[nH]c3c2c1-c1ccccc1
Out: 73

In: Form field: reported residual activity of CCCc1c(C(=O)OC)[nH]c2c(N)cc3cn[nH]c3c12
Out: 82

In: Form field: reported residual activity of Cc1c[nH]c2c(N)cc3cn[nH]c3c12
Out: 65

In: Form field: reported residual activity of CCCc1c(C(=O)OC)[nH]c2c([N+](=O)[O-])cc3cn[nH]c3c12
Out: 50

In: Form field: reported residual activity of CCc1[nH]c2c([N+](=O)[O-])cc3cn[nH]c3c2c1-c1ccccc1
Out: 31

In: Form field: reported residual activity of C[Si](C)(C)c1cc2c([nH]1)c([N+](=O)[O-])cc1cn[nH]c12
Out: 51

In: Form field: reported residual activity of C[Si](C)(C)c1cc2c([nH]1)c(N)cc1cn[nH]c12
Out: 67

In: Form field: reported residual activity of O=Cc1c[nH]c2c([N+](=O)[O-])cc3cn[nH]c3c12
Out: 76

In: Form field: reported residual activity of CCOC(=O)c1[nH]c2c([N+](=O)[O-])cc3cn[nH]c3c2c1C
Out: 72

In: Form field: reported residual activity of CCc1[nH]c2c(N)cc3cn[nH]c3c2c1-c1ccccc1
Out: 72

Provenance of the data: ChEMBL document CHEMBL2375344
